Entry source: patent US20260317324A1

Target Or System: BRAF G469A (Homo sapiens, UniProt P15056, G469A)
Construct: Horizon Discovery (HCT-116 BRAF−/− cells); host or cells: HCT-116 BRAF−/− cells, clone 34, lentiviral transduction
Sequence (P15056 whole entry G469A): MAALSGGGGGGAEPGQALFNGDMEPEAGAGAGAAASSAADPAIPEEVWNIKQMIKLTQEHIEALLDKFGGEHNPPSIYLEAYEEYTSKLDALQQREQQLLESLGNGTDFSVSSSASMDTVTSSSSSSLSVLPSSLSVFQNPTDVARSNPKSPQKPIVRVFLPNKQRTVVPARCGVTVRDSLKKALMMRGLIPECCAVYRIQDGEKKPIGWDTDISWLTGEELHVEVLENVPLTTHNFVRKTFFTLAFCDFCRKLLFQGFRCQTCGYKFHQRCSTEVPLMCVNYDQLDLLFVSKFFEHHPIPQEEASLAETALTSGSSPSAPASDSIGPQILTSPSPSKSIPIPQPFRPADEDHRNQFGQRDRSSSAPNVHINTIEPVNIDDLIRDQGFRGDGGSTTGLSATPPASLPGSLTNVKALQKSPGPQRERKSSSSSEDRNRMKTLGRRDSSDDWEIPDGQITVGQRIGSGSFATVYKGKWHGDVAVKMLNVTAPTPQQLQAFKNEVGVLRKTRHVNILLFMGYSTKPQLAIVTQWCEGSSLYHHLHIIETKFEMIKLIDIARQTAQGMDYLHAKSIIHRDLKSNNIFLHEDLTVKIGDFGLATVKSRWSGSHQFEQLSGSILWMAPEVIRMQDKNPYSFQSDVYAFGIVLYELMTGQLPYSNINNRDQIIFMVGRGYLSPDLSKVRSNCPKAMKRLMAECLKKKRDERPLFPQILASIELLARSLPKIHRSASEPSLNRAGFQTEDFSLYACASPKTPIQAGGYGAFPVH
Procedure Text: BRAF HiBiT degradation assay, C-terminal HiBiT-tagged BRAF G469A overexpressed in HCT-116 BRAF−/− cells (clone 34), Nano-Glo HiBiT Lytic assay
Format: cell-based
Run Parameters: BRAF G469A (Class 2), HCT-116 BRAF−/− cells; observed Dmax relative to DMSO control
Procedure: An A375 cell line expressing a homozygous V600E mutation was purchased from ATCC (Manassas, VA, USA). […] HiBiT signal was measured by a Nano-Glo HiBiT Lytic assay (Promega cat. no. N3050). […] Luminesce units (LU) were read on an EnVision plate reader 2105 (Perkin Elmer). Percent protein remaining and viability remaining per sample were calculated as follows: […]
Recorded Dmax for the following compounds

The following compounds have reported results that may help.
Ask: Look at this compound and give its reported Dmax. CCCS(=O)(=O)Nc1cc(Cl)cc(-c2cn(-c3ccc(N4CCN(CC5CCN(c6ccc([C@H]7CCC(=O)NC7=O)cc6)CC5)[C@H](C)C4)cc3)nc2-c2ccncc2)c1F [Compound 275]
Result: 30 to 70%

Ask: Also O=C1CCN(c2ccc(N3CCC(CN4CCN(c5ccc(-n6cc(-c7cc(Cl)cc(NS(=O)(=O)N8CCCC8)c7F)c(-c7ccncc7)n6)c(F)c5)CC4)CC3)nc2)C(=O)N1 [Compound 370] ?
Result: 30 to 70%

Ask: How about O=C1CCC(c2ccc(N3CCC(CN4CCN(c5ccc(-n6cc(-c7cc(Cl)cc(NS(=O)(=O)C8CCCC8)c7F)c(-c7ccncc7)n6)cc5)CC4)CC3)nc2)C(=O)N1 (racemic) [Compound 373] ?
Result: > 70%

Ask: What about this compound? O=C1CCC(c2ccc(N3CCC(CN4CCN(c5ccc(-n6cc(-c7cc(Cl)cc(NS(=O)(=O)N8CCCC8)c7F)c(-c7ccncc7)n6)nc5)CC4)CC3)nc2)C(=O)N1 (racemic) [Compound 288]
Result: > 70%

Further cases:
Ask: Consider the compound CCCS(=O)(=O)Nc1cccc(-c2nc(C3CCN(C(=O)CC4CCN(C5CCN(c6ccc7c(c6)C(=O)N(C6CCC(=O)NC6=O)C7=O)CC5)CC4)CC3)sc2-c2ccnc(N)n2)c1F (racemic) [Compound 250] and give its measured Dmax.
Result: < 30%

###

Target Or System: BRAF V600E (Homo sapiens, UniProt P15056, V600E)
Construct: endogenous C-terminal HiBiT fusion tag on BRAF V600E allele; endogenous in cells; host or cells: A375 clone 1F10 (CRISPR-Cas9 knock-in of the HiBiT tag; parental A375 from ATCC)
Sequence (P15056 whole entry V600E, the tested form may be a part): as the sequence (P15056 whole entry G469A) above, with A469G, V600E counted along it
Procedure Text: BRAF HiBiT degradation assay, C-terminal HiBiT-tagged BRAF V600E A375 cells (clone 1F10), Nano-Glo HiBiT Lytic assay
Assay type: cell-based
Run Parameters: A375 (BRAF V600E); DC50 at 50%: fitted conc. at Y=50
Reported Property: DC50

Ask: Which DC50 value belongs to CCN(C)S(=O)(=O)Nc1cccc(-c2nc(C3CCN(C(=O)C4CCN(C(=O)C5CCN(c6ccc(C7CCC(=O)NC7=O)cn6)CC5)CC4)CC3)sc2-c2ccnc(N)n2)c1F (racemic) [Compound 209] ?
Result: < 10 nM

Ask: Moving on to the next molecule: CCCS(=O)(=O)Nc1cccc(-c2nc(C3CCN(C(=O)C4CCN(C(=O)C5CCN(c6ccc(C7CCC(=O)NC7=O)cn6)CC5)CC4)CC3)sc2-c2ccnc(NC)n2)c1F (racemic) [Compound 212]
Result: < 10 nM

Ask: // query: CCCS(=O)(=O)Nc1cccc(-c2nc(C3CCC4(CC3)CCN(C(=O)CN3CCC5(CC3)CN(c3ccc6c(c3)C(=O)N(C3CCC(=O)NC3=O)C6=O)C5)CC4)sc2-c2ccnc(N)n2)c1F (racemic) [Compound 237]
Result: < 10 nM

Ask: Input CCCS(=O)(=O)Nc1cccc(-c2nc(C(C)(C)C)sc2-c2ccnc(Nc3cccc(OC4CCN(C(=O)CN5CCN(c6cc(C7CCC(=O)NC7=O)ccn6)CC5)CC4)c3)n2)c1F (racemic) [Compound 93]
Result: 10 to 50 nM

Ask: Another molecule to check: CCCS(=O)(=O)Nc1cccc(-c2nc(C3CCN(C(=O)C4(C)CCN(C(=O)C5CCN(c6ccc(C7CCC(=O)NC7=O)cn6)CC5)CC4)CC3)sc2-c2ccnc(N)n2)c1F (racemic) [Compound 197]
Result: < 10 nM

Ask: What do we get for CCCS(=O)(=O)Nc1cccc(-c2nc(C3CCC4(CC3)CN(C(=O)CN3CCC5(CC3)CN(c3ccc6c(c3)C(=O)N(C3CCC(=O)NC3=O)C6=O)C5)C4)sc2-c2ccnc(N)n2)c1F (racemic) [Compound 236] ?
Result: < 10 nM

Ask: Likewise for CCCS(=O)(=O)Nc1cccc(-c2nc(C(C)(C)C)sc2-c2ccnc(Nc3cnn(C4CCN(C(=O)C5CCN(c6ccc(C(=O)NC7CCC(=O)NC7=O)nc6)CC5)CC4)c3)n2)c1F (racemic) [Compound 107] ?
Result: 10 to 50 nM

Ask: Subsequent entry: CCCS(=O)(=O)Nc1cccc(-c2nc(C3CCN(C(=O)C4CCN(CC5CCN(c6ccc(C7CCC(=O)NC7=O)cn6)CC5)CC4)CC3)sc2-c2ccncc2)c1F (racemic) [Compound 211]
Result: 50 to 500 nM

---
Ask: Look up DC50: CCCS(=O)(=O)Nc1cccc(-c2cn(-c3ccc(C4CCN(CC5CCN(c6ccc(C7CCC(=O)NC7=O)cc6F)CC5)CC4)cc3)nc2-c2ccncc2)c1F (racemic) [Compound 22]
Result: 10 to 50 nM

Ask: Would you mind doing CCN(C)S(=O)(=O)Nc1cccc(-c2nc(C)sc2-c2ccnc(Nc3ccc(N4CCN(CC5(C)CCN(c6ccc(C7CCC(=O)NC7=O)cn6)CC5)CC4)cn3)n2)c1F (racemic) [Compound 34] as well?
Result: 10 to 50 nM

###

Target Or System: BRAF D594G (Homo sapiens, UniProt P15056, D594G)
Construct: Horizon Discovery (HCT-116 BRAF−/− cells); host or cells: HCT-116 BRAF−/− cells, clone 63, lentiviral transduction
Sequence (P15056 whole entry D594G): as the sequence (P15056 whole entry G469A) above, with A469G, D594G counted along it
Procedure Text: BRAF HiBiT degradation assay, C-terminal HiBiT-tagged BRAF D594G overexpressed in HCT-116 BRAF−/− cells (clone 63), Nano-Glo HiBiT Lytic assay
Assay type: cell-based
Run Parameters: BRAF D594G (Class 3), HCT-116 BRAF−/− cells; DC50 at 50% degradation
Reported Property: DC50

Sample answers from the record:
Ask: Form entry - test system: BRAF D594G (Homo sapiens, UniProt P15056, D594G); read-out: DC50; compound: C[C@@H]1CN(c2ccc(-n3cc(-c4cc(Cl)cc(NS(=O)(=O)N5CCCC5)c4F)c(-c4ccncc4)n3)cc2)CCN1CC1CCN(c2ccc(N3CCC(=O)NC3=O)cc2)CC1 [Compound 319]
Result: < 10 nM

Ask: # iterate: O=C1CCC(c2ccc(N3CCC(CN4CCN(c5ccc(-n6cc(-c7cc(F)cc(NS(=O)(=O)N8CCCC8)c7F)c(-c7ccncc7)n6)cc5)CC4)CC3)nc2)C(=O)N1 (racemic) [Compound 267]
Result: < 10 nM

Continuing:
Ask: DC50 of CCCS(=O)(=O)Nc1cccc(-c2nc(C3CCC4(CC3)CCN(CC3CCN(c5ccc(C6CCC(=O)NC6=O)cn5)CC3)CC4)sc2-c2ccnc(N)n2)c1F (racemic) [Compound 260] on BRAF D594G (Homo sapiens, UniProt P15056, D594G)?
Result: > 500 nM

Ask: Next record, please: O=C1CC[C@H](c2ccc(N3CCC(CN4CCN(c5ccc(-n6cc(-c7cc(Cl)cc(NS(=O)(=O)N8CC[C@@H](F)C8)c7F)c(-c7ccncc7)n6)nc5)CC4)CC3)nc2)C(=O)N1 [Compound 297]
Result: < 10 nM

Ask: Another compound: O=C1CC[C@H](c2ccc(N3CCC(CN4CCN(c5ccc(-n6cc(-c7cc(Cl)cc(NS(=O)(=O)N8CCCC8)c7F)c(-c7ccncc7)n6)nc5)CC4)CC3)cc2)C(=O)N1 [Compound 286]
Result: < 10 nM

###

Dmax reference
Target Or System: BRAF D594G (Homo sapiens, UniProt P15056, D594G)
Construct: Horizon Discovery (HCT-116 BRAF−/− cells); host or cells: HCT-116 BRAF−/− cells, clone 63, lentiviral transduction
Procedure Text: BRAF HiBiT degradation assay, C-terminal HiBiT-tagged BRAF D594G overexpressed in HCT-116 BRAF−/− cells (clone 63), Nano-Glo HiBiT Lytic assay
Type: cell-based
Run Parameters: HCT-116; BRAF D594G; percentage protein degraded at maximal compound effect relative to DMSO

Study these solved cases before continuing.
Ask: Which value of Dmax has been reported for CCCS(=O)(=O)Nc1cccc(-c2cn(-c3ccc(C4CCN(CC5CCN(c6ccc(C7CCC(=O)NC7=O)cc6)CC5)CC4)cc3)nc2-c2ccncc2)c1F (racemic) in the records?
Result: 30 to 70%

Ask: Ok, now `CCCS(=O)(=O)Nc1cccc(-c2nc(C(C)(C)C)sc2-c2ccnc(Nc3cnn(C4CCN(CC5CCN(c6ccc(C(=O)N[C@@H]7CCC(=O)NC7=O)nc6)CC5)CC4)c3)n2)c1F`
Result: 30 to 70%

Ask: Can you handle CCCS(=O)(=O)Nc1cccc(-c2nc(C(C)(C)C)sc2-c2ccnc(NC3CC4(C3)CN(C(=O)C3(F)CCN(CC5CCN(c6ccc(C7CCC(=O)NC7=O)cc6)CC5)CC3)C4)n2)c1F (racemic) next?
Result: < 30%

***
Ask: Consider the molecule CCN(C)S(=O)(=O)Nc1cccc(-c2nc(C(C)(C)C)sc2-c2ccnc(Nc3ccc(N4CCN(C(=O)[C@H]5CC[C@H](CN6CCc7cc(C8CCC(=O)NC8=O)ccc7C6)CC5)CC4)cn3)n2)c1F (mixture of isomers) and give its measured Dmax.
Result: < 30%

Ask: Let us now turn to `CCN(C)S(=O)(=O)Nc1cccc(-c2nc(C(C)(C)C)sc2-c2ccnc(Nc3ccc(N4CCN(CC5CCN(c6ccc([C@@H]7CCC(=O)NC7=O)cc6)CC5)CC4)cn3)n2)c1F`
Result: 30 to 70%
